assay: HoxA9-arrested leukemia cell differentiation promoters – flow cytometry, MLPCN library, primary screen (AID 624256); settings: ER-HoxA9 myeloid progenitors, lysozyme-GFP differentiation, at 10 µM
The whole screen tested about 360,000 compounds, of which about 3,700 (1%) were called active. Inconclusive results (about 2%) are left out.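 Rule for the calls: active = normalized GFP-positive differentiation at or above the plate's own cutoff, the solvent-only control mean plus 3 SD; inconclusive = no clear call, values can overlap the other calls; inactive = the rest.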 The entries come from a sample that favours actives as a whole.
Pick one: 1 for active, 0 for inactive

Some entries whose results are on file:
compound=CN1CCN(c2ccc3c(c2)OC[C@H](Cc2ccccc2)NS3(=O)=O)CC1 label_value=0
compound="CC1(C(=O)NS(=O)(=O)c2ccc(C#N)cc2)CCN1C(=O)CC1CCCC1 (stereo not given)" label_value=0
compound="COCCNC(=O)C1C(=O)Nc2ccccc2C(=O)N1c1ccc2c(c1)OCCO2 (stereo not given)" label_value=0
compound=CCOC(=O)c1c(-c2cccc(C)c2)csc1NC(=O)c1c(-c2ccccc2)noc1C label_value=1
compound=COc1ccccc1CNC(=O)C1CCN(C(=O)[C@@H]2Cc3ccccc3CN2)CC1 label_value=0

# outcome recorded in this test, key = `CN1OC[C@@H]2CN(S(=O)(=O)c3cccc4ccccc34)[C@H](c3ccc(N4CCCCC4)cc3)C[C@@H]21`
0

# outcome recorded in this test, key = `COc1ccccc1CNC(=O)C1CCN(c2nc3ccccc3o2)CC1`
1

# outcome recorded in this test, key = `Cc1[nH]c2ccccc2c1C(=O)COC(=O)c1c(-c2ccccc2)noc1C`
0

# outcome recorded in this test, key = `CCOC(=O)c1c(-c2ccc(-c3ccccc3)cc2)csc1NC(=O)CCC(=O)O`
0

# outcome recorded in this test, key = CCCNC(=O)C1(C)CCN(C(=O)c2cc(F)ccc2C)C1 (stereo not given)
0
